# ASSAY_COMMENT: Toxicokinetics, 14-day intranasal study in dogs (Study 62959)
# Format: in vivo
# APPLIED_CONDITIONS: female, Beagle, dog, plasma, inhaled or intranasal, 0.8 mg/kg/day, Day 1, Female, read-out: t1/2 (converted)

>  <MOLECULE>
COc1ccc2[nH]cc(CCN(C)C)c2c1 [BPL-5MEO, 5-methoxy-N,N-dimethyltryptamine]

>  <half-life [min]>
43.8

$$$$

====

# ASSAY_COMMENT: Summary of clinical observations in applicant-sponsored rat studies
# APPLIED_CONDITIONS: Sprague Dawley, in vivo, other: intranasal instillation, HED 48 mg, read-out: NOAEL determined in the 14-day toxicology studies
READOUT_KIND: NOAEL at 14 days

>  <COMPOUND>
COc1ccc2[nH]cc(CCN(C)C)c2c1 [BPL-5MEO, 5-methoxy-N,N-dimethyltryptamine]

>  <READOUT_KIND>
NOAEL at 14 days

>  <RESULT>
5 mg/kg

$$$$
